Task for the reader: assign each of the following binders its reported log10 of EC50.
biological target: SARS-CoV-2 spike receptor binding domain (RBD), S protein residues 319-539 (SARS-CoV-2, UniProt P0DTC2 319-539); assay: ELISA on coated RBD
// stored as log10 of EC50 expressed in ng/mL

Consider the binder shown here: C077 (antibody, V domains shown) VH: QVQLVQSGAEVKKPGASVKVSCKASGYTFTSYAMHWVRQAPGQRLEWMGWINTDNGNTKYSQKFQGRVTITRDTSASTAYMELSSLRSEDTAVYYCAREGALTNWFDPWGQGTLVTVSS VL: SYELTQPPSVSVAPGQTARIPCGGNNIGSKSVHWYQQKPGQAPVLVVYDDSDRPSGIPERFSGSNSGNTATLTISRVEAGDEADYYCQVWDSSSDLHVVFGGGTKLTVL What is its recorded log10 of EC50?
1.66

Now try C597 (antibody, V domains shown) VH: QVQLVQSGPEVKKPGTSVKVSCKASGFTFTNSAVQWVRQSRRQRLEWIGWIVVGSGNTNYAQKFQERVTITRDMSTSTAYMELSSLRSEDTAVYYCAAVDCNSTSCYDAFDIWGQGTMVTVSS VL: EIVLTQSPGTLSLSPGERATLSCRASQSFRSSYLAWYQQKPGQAPRLLIYGASSRATGIPDRFSGSGSGSDFTLTISRLEPEDFAVYYCQQYDISPWTFGQGTKVEIK .
0.58

Query C509 (antibody, V domains shown) VH: QVQLQESGPGLVKPSGTLSLTCAVSGGSISSSNWWSWVRQPPGKGLEWIGEIYNSGSTNYNPSLKSRVTILVDKSKNQFSLKLSSVTAADTAVYYCAGSYSNYIGGVWFDPWGQGTLVTVSS VL: EIVLTQSPATLSLSPGERATLSCRASQSVSTYLAWYQQKPGQAPRLLIYDASNRATGIPARFSGSGSGTDFTLTISSLEPEDFAVYYCQQRNNWLTFGGGTKVEIK next
0.65

And the next one, C513 (antibody, V domains shown) VH: EVQLLESGGGLVQPGGSLRLSCVASGFSFSTYAMSWVRQAPGQGLEWVSTITGTSIGTYYADSVKGRFTISRDNSKNTVFLQMKSLRAEDAAVYYCANHPLASGDEYYYYYMDVWGKGTTVTVSS VL: EIVLTQSPDTLSLSPGERATLSCRASQSVHSKQLAWYQQKPGQAPRLLIYGASSRATGIPDRFSGSGSGTDFTLTISRLEPEDFAVYYCQQYGSIRALTFGGGTKVEIK ?
0.12

Same lookup for C514 (antibody, V domains shown) VH: EVQLVESGGGLVQPGGSLRLSCAASEFIVTRNYMSWVRQAPGKGLEWVSLIYPGGSTFYADSVKGRFTISRDNSKNTLFLHMNSLRAEDTAVYYCARDLAGRLDYWGQGTLVTVSS VL: DIQMTQSPSSLSASVGDRVTITCQASQDINNFLNWYQQKPGKAPKLLIYDASNLETGVPSRFSGSGSGTDFTFTISSLQPEDIAIYYCQQYDSLSRLTFGGGTKVEIK , please.
-0.09
